Experiment: self-splicing fitness, log relative to wild type (ln ratio); higher = more splicing; Tetrahymena group I intron in knt gene, E. coli kanamycin selection, DiMSum; sequences stand for … in CUCUCU…GGAGGGAAAAGUUAUCAGGCAUGCACCUGGUAGCUAGUCUUUAAACCAAUAGAUUGCAUCGGUUUAAAAGGCAAGACCGUCAAAUUGCGGGAAAGGGGUCAACAGCCGUUCAGUACCAAGUCUCAGGGGAAACUUUGAGAUGGCCUUGCAAAGGGUAUGGUAAUAAGCUGACGGACAUGGUCCUAACCACGCAGCCAAGUCCUAAGUCAACAGAUCUUCUGUUGAUAUGGAUGCAGUUCACAGACUAAAUGUCGGUCGGGGAAGAUGUAUUCUUCUCAUAAGAUAUAGUCGGACCUCUCCUUAAUGGGAGCUAGCGGAUGAAGUGAUGCAACACUGGAGCCGCUGGGAACUAAUUUGUAUGCGAAAGUAUAUUGAUUAGUUUUGGAGUACUCGUGGUCG;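 further: selection with 25 µg/mL kanamycin versus none on LB agar overnight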
Conditions: 37 °C
quantity measured: self-splicing fitness (ln)

* CUUCAGCAAUAUUACGGAGA | -3.04
* GAUUAGCAAUAUUACGGAGG | -1.81
* UCAAAGCAAUAUUACGCUGA | -1.62
* GAUUAGCAAUAUUACGUCCC | -0.221
* UCAUAGCAAUAUUACGGCGG | 0.417
* UUACAGCAAUAUUACGCUGA | -2.55
* CUACAGCAAUAUUACGUGCC | -2.39
* CGCUAGCAAUAUUACGCUAA | -1.53
* UGGAAGCAAUAUUACGUUCG | -0.347
* UCCCAGCAAUAUUACGAAUG | -2.61
* CUAUAGCAAUAUUACGCAUA | -2.68
* AUCCAGCAAUAUUACGCGUA | -0.499
* AUGAAGCAAUAUUACGUUUA | -0.537
* UGACAGCAAUAUUACGAGCU | -1.53
* GGUUAGCAAUAUUACGCUCC | 0.76
* AAGUAGCAAUAUUACGGACU | -0.212
* GUCGAGCAAUAUUACGAACG | -1.02
* ACAAAGCAAUAUUACGAUAU | -1.15
* UUGUAGCAAUAUUACGUAUA | -0.709
* ACUCAGCAAUAUUACGAUAU | -0.759
* AGCCAGCAAUAUUACGUCGG | -2.97
* GACAAGCAAUAUUACGAGAG | -2.96
* AAGUAGCAAUAUUACGCUCA | 0.5
* UAUAAGCAAUAUUACGUGCC | -1.44
* CUCAAGCAAUAUUACGUAAC | -2.08
* AUUGAGCAAUAUUACGGGGA | -2.49
* UCAGAGCAAUAUUACGCUGA | -2.1
* UUGUAGCAAUAUUACGUGAG | -0.739
* UGAGAGCAAUAUUACGGUAG | -2.88
* AGGAAGCAAUAUUACGGGCU | -0.915
* GUUUAGCAAUAUUACGUUUG | -1.45
* AUUUAGCAAUAUUACGGACU | 0.805
* GCGAAGCAAUAUUACGGUUU | -1.62
* ACGAAGCAAUAUUACGAAUC | -2.9
